- target_entity: T1, monocyte chemo-attractant protein-1 (MCP-1) (Homo sapiens (Human)., UniProt P13500)
- T1 construct: MCP-1 (monocyte chemo-attractant protein-1), chemokine; synthetic gene optimised for E. coli in pET26b; Probably the mature human chemokine, as in PDB 2BDN; also called monocyte chemotactic protein-1; antigen; source: E. coli Rosetta2 (DE3), purified (Ni-NTA, SEC)
- assay: SPR; Biacore T200; MCP-1 immobilised on a CM5 chip by amine coupling (~220 RU), scFv injected at 30 µl/min; PBS with 0.005% Tween-20; 25°C; global fit, 1:1 Langmuir model; KD from koff/kon
- condition_context: both partners purified
measured_parameter: kon (M⁻¹ s⁻¹)
One number for each entry, in M⁻¹ s⁻¹.

Name the reported kon value associated with the binder 11K2 scFv mutein L-T56E (scFv, V domains shown, PDB 2BDN heavy chain; PDB 2BDN light chain) with the stated change) VH: EVQLQQSGAELVKAGASVKLSCPASGLNIKDTYMHWVKQRPEQGLEWIGRIDPANGNTKFDPKFQGKATITADTSSNTAYLQLSSLTSEDTAVYYCARGVFGFFDYWGQGTTLTVSS VL: DIQMTQSSSSFSVSLGDRVTITCKATEDIYNRLAWYQQKPGSAPRLLISGATSLEEGVPSRFSGSGSGKDYTLSITSLQTEDVATYYCQQFWSAPYTFGGGTKLEIK
100000
